Just for reference, patent US8273761B2 is where these values come from.

Each entry below carries its recorded melting point.

CCc1nn2ccc3c(c2c1C(C)CNC(C)=O)CCO3 (stereo not drawn): 151 to 153 °C
CC(=O)NCCC1=C(C(C)C)Cc2cnc3c(c21)CCO3: 164 to 166 °C
CCC(=O)NCC(C)c1c(CC)nn2ccc3c(c12)CCO3 (stereo not drawn): 173 to 175 °C
CCC(=O)NCCc1c(-c2ccccc2)nn2ccc3c(c12)CCO3: 169 to 170 °C
CCC(=O)NCCC1=CCc2cnc3c(c21)CCO3: 111 to 112 °C
CCC(=O)NCCc1cnn2ccc3occc3c12: 104 to 106 °C
CC(=O)NCCc1cnn2ccc3c(c12)CCO3: 174 to 175 °C
CCC(=O)NCCC1=C(C(C)C)Cc2cnc3c(c21)CCO3: 168 to 170 °C

Request: Look up melting point: CCCC(=O)NCCc1cnn2ccc3c(c12)CCO3
Response: 58 to 59 °C
